We begin with a simple list: items and their reported IC50.
Target: recombinant human cIAP1-BIR3 protein (Homo sapiens)
Construct: recombinant human cIAP1-BIR3 protein; purchased Reaction biology APT-11-370
Sequence (Q13490 253-363 limits assumed): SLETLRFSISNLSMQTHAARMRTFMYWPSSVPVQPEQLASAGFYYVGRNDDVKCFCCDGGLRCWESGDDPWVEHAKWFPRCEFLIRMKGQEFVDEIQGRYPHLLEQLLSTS
Assay: Recombinant human c-IAP1-BIR3 biochemical assay (HTRF, peptide displacement)
Details: 1.2 nM cIAP1-BIR3, 3 nM AbuRPF-K(5-Fam)-NH2 peptide, read-out: Protein binding IC50 (nM) c-IAP1
Expressed in nM, but write only the number.

{"molecule": "C[C@@H]1CN(CC(=O)N2c3cc(Cc4ccc(F)cc4)c(C(=O)N4CCCCC4)nc3OC[C@@H]2C)[C@@H](CN2[C@H](C)COC[C@H]2C)CN1", "subject of test": "recombinant human cIAP1-BIR3 protein (Homo sapiens)", "observed property": "IC50", "units symbol": "nM", "numeric result": 0.24}

GET /values?readout=IC50&item= C[C@@H]1CN(CC(=O)N2c3cc(Cc4ccc(F)cc4)c(CO)nc3OC[C@@H]2C)[C@@H](CN2C[C@@H]3C[C@H]2CO3)CN1
0.68

Note, next up: C[C@@H]1CN(CC(=O)N2c3cc(Cc4ccc(F)cc4)c(C(=O)Nc4ccc(F)cc4)nc3OC[C@@H]2C)[C@@H](CN2[C@H](C)COC[C@H]2C)CN1
0.26

Likewise for C[C@@H]1CN(CC(=O)N2c3cc(Cc4ccc(F)cc4)c(C(=O)NCCN4CCOCC4)nc3OC[C@@H]2C)C(CN2[C@H](C)COC[C@H]2C)CN1 (stereo partly drawn) ?
0.2
